TESTED_TARGET: T1, full-length human Regnase-1 with a FLAG tag on the N-terminal side and a biotin ligase BirA recognition … (human, UniProt Q5D1E8 1-599, biotinylated where required ; Biotinylated at the BirA recognition sequence where required. That sequence is not in the letters.)
T1 construct: Expressed in Expi293 cells, purified on FLAG M2 agarose and by gel filtration; also called full-length Regnase-1; human full-length Regnase-1
T1 sequence: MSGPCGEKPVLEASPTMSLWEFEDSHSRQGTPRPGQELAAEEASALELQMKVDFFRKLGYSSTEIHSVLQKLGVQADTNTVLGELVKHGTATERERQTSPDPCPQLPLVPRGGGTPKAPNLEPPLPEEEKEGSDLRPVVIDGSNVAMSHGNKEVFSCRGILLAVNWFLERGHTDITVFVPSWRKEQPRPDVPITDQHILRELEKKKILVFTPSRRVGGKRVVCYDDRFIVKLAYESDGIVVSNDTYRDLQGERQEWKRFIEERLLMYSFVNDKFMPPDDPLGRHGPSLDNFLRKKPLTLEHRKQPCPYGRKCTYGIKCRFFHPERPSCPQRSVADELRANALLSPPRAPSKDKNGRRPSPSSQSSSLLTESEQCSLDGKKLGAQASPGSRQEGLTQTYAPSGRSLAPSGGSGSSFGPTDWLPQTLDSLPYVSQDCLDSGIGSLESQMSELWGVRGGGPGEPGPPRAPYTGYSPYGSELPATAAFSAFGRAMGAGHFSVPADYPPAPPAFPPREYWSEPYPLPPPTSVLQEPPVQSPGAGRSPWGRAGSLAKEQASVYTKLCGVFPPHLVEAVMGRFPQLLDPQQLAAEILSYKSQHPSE
TEST_PROTOCOL: affinity selection-MS (SEC, LC/MS), 1 µM each
Positions of bridges follow the written chain, without caps; N, C: chain ends. Non-standard residues stand in square brackets, D forms with d. No end group written: not given here. NMeA = CN[C@@H](C)C(=O)O; dNMeA = CN[C@H](C)C(=O)O
READOUT_NAME: AS-MS ratio(%)

In: Sample [NMeA]NSWYINIWGHD (lactam N-12) [PP15] — what was its AS-MS ratio(%)?
Out: 66.7

In: Here is the next binder: [NMeA]TSWYKVNWGQD (lactam N-12) [PP1]
Out: 21.8

In: Now the binder [NMeA]VFYKIWYNWD (lactam N-11) [PP19]
Out: 2.1

P: [dNMeA]PNSSWFKIWD (lactam N-11) [PP6]
Q: [NMeA]NYQSWYYRSIWD (lactam N-13) [PP10]
R: [NMeA]NSWYKIWGLD (lactam N-11) [PP21]
S: [dNMeA]PTSSWYKIWD (lactam N-11) [PP23]
T: [NMeA]RFRQWKWVYPD (lactam N-12) [PP13]
In: Hey, can you sort those binders up there by AS-MS ratio(%), smallest first? I would appreciate it if you listed the labels in the requested order.
Out: T, Q, P, R, S
